Attribution: patent US20140120095A1

target: T1, recombinant human DLL4 (C-terminally His-tagged extracellular domain, R&D Systems) (human, UniProt Q9NR61 25-522, biotinylated in the competition ELISA); assay: binding ELISA on coated recombinant human DLL4 (Example 5.8, Example 7), OD 450 nm
T1 construct: also called rhDLL4; hDLL4
T1 sequence (Q9NR61 25-522): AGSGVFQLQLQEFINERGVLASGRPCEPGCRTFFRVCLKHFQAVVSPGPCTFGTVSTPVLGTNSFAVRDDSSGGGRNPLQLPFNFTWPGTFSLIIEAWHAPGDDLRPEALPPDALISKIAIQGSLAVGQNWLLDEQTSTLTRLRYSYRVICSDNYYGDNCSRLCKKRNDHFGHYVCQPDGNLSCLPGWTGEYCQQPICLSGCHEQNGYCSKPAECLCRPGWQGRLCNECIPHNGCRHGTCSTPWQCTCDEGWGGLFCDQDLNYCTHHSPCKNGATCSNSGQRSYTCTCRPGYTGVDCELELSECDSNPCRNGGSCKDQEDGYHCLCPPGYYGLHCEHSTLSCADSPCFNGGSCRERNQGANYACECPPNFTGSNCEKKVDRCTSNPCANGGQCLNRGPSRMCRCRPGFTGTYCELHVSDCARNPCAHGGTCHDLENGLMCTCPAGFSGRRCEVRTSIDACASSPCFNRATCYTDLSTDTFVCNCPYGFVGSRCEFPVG
outcome.measure: EC50 (read off the curve)

Worked examples follow.
The recorded EC50 (read off the curve) for entry DLLBII133G05 (VHH, not shown: small tags and cut ends) VHH: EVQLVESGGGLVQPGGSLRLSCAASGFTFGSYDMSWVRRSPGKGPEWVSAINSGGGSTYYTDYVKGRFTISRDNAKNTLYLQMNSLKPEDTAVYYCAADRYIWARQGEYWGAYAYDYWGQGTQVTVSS equals ~0.4 nM

Short answer for DLLBII133A09 (VHH, not shown: small tags and cut ends) VHH: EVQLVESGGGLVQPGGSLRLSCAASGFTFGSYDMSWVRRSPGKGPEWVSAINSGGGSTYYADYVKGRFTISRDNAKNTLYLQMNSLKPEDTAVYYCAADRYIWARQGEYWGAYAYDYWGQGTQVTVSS : EC50 (read off the curve) was ~0.6 nM

Just so you know, measured EC50 (read off the curve) for DLLBII015 (VHH, not shown: small tags and cut ends) VHH: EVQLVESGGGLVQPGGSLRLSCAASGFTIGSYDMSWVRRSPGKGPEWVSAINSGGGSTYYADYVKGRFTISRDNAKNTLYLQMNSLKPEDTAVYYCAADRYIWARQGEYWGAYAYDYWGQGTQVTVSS came out at ~0.6 nM

Lab note: measured EC50 (read off the curve) of DLLBII115A05 (VHH, not shown: small tags and cut ends, parent VHH; also called 115A05 (wt); 115A5) VHH: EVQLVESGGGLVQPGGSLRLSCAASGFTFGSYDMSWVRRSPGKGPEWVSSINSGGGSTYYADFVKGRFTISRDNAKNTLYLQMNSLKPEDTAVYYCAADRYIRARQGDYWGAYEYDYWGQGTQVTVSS was ~2 nM

The record that follows has no EC50 (read off the curve) shown yet.
DLLBII136C07 (VHH, not shown: small tags and cut ends) VHH: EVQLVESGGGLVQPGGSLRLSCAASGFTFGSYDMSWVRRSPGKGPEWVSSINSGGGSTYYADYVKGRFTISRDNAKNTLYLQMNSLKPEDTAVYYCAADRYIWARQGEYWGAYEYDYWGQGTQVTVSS yielded EC50 (read off the curve) of ~0.6 nM
